Target: HLA-A*0203 (human)
Test: competition with 125I standard peptide for purified HLA; gel filtration
Details: remark: other sources report otherwise
MEASURED_PROPERTY: IC50 (nM)

[[record]]
binder = "GLHGQDLFGV (modifications not checked) [Peptide 1419.62 … (PAP.196.V10)]"
measured_property = "IC50"
units_symbol = "nM"
meas_value = 3.2


(I) LLSNDMCARV (modifications not checked) [Peptide 1418.53 … (HuK2.178.V10)]
(II) HLLSNDMCV (modifications not checked) [Peptide 1418.20 … (HuK2.177.V9)]
Pick one: I or II . Which one has the lower reported IC50? Give the label under which the chosen entry appears. I
(I: 4.3 nM, II: 278 nM)
